system.name: human E3 ligase component cereblon (CRBN) (Homo sapiens (Human), UniProt Q96SW2)
Sequence (Q96SW2 whole entry): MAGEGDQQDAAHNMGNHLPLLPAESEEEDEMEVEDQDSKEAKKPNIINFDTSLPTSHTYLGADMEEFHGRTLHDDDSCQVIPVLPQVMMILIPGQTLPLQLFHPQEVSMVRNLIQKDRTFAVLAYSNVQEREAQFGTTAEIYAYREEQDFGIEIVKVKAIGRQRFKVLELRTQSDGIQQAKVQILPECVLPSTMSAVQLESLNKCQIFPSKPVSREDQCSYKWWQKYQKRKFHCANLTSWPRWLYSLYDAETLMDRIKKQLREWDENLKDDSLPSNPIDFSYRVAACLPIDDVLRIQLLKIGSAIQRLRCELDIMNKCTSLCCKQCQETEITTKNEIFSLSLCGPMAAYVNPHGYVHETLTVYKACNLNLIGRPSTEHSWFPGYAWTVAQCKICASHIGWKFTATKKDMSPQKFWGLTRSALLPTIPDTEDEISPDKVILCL
Sequence (Q16531 whole entry partner): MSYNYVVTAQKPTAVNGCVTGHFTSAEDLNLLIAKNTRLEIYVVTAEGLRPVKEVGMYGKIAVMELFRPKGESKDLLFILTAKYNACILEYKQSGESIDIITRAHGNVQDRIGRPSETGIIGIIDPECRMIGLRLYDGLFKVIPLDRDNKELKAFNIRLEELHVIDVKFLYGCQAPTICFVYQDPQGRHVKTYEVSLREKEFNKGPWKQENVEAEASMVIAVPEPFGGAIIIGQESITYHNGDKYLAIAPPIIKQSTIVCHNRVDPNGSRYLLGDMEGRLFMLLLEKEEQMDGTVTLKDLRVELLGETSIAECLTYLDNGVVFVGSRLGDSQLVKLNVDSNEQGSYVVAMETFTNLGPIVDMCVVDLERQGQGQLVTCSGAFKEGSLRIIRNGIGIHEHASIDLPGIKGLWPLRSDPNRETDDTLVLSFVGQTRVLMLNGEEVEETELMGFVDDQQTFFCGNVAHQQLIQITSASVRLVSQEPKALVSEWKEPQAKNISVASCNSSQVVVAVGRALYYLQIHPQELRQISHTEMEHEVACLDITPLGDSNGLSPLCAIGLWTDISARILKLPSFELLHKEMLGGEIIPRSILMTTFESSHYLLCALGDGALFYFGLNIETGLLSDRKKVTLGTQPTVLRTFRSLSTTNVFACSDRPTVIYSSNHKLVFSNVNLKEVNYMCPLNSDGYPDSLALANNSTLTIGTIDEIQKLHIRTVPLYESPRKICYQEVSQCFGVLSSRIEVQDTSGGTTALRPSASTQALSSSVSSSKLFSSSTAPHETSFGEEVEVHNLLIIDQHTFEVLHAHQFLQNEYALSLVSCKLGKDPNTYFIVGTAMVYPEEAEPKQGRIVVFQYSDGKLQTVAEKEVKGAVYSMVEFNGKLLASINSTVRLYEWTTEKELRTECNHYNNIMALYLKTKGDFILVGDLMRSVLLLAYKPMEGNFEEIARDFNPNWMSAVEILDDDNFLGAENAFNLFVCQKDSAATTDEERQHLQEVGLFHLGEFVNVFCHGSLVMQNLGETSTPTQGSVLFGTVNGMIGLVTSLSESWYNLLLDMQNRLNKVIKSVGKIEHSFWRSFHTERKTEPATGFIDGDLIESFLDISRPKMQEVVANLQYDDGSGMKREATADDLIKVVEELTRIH
protocol.details: Cereblon (CRBN) target engagement, NanoBRET TE Intracellular E3 Ligase Assay in transfected HEK-293T cells
test.parameters: read-out: CRBN Binding EC50
Procedure: HEK293T cells were harvested ca. 75% confluent with trypsin and plated (500,000 cells/well) in a 6-well tissue culture plate in 2 mL of Dulbecco's Modified Eagle Medium (DMEM)+10% Fetal Bovine Serum (FBS) and incubated overnight at 37° C. […] Cereblon target engagement was monitored by Bioluminescence Resonance Energy Transfer (BRET) in transfected HEK-293T cells using the NanoBRET TE Intracellular E3 Ligase Assay (Promega). […]
readout.kind: EC50 (nM)

O=C1CCC(N2Cc3cc(OC4CCCCC4N4CC(c5ccccc5OC(F)(F)F)C4)ccc3C2=O)C(=O)N1 (centres unmarked) [Compound 68] :: 26
N#Cc1ccc(C2CN(C3CCCC3Oc3ccc4c(c3)CN(C3CCC(=O)NC3=O)C4=O)C2)cc1F (centres unmarked) [Compound 110] :: 19
N#Cc1ccc(C2CN([C@H]3CCCC[C@@H]3Oc3ccc4c(c3)CN(C3CCC(=O)NC3=O)C4=O)C2)c(Cl)c1 (single isomer, unassigned) [Compound 47] :: 5
O=C(O)CC(O)(CC(=O)O)C(=O)O.O=C1CCC(N2Cc3cc(O[C@H]4CCCC[C@@H]4N4CC(c5ccccc5)C4)ccc3C2=O)C(=O)N1 (some centres unmarked) [Compound 130] :: 4
O=C1CCC(N2Cc3cc(O[C@H]4CCCC[C@@H]4N4CC(c5ccc(F)cc5F)C4)ccc3C2=O)C(=O)N1 (some centres unmarked) [Compound 57] :: 6

a = N#Cc1cc(Cl)ccc1C1CN([C@@H]2CCCC[C@@H]2Oc2ccc3c(c2)CN(C2CCC(=O)NC2=O)C3=O)C1 (single isomer, unassigned) [Compound 37]
b = O=C1CCC(N2Cc3cc(O[C@H]4CCCC[C@H]4N4CCC4c4ccccc4)ccc3C2=O)C(=O)N1 (some centres unmarked) [Compound 56]
Qu. Just tell me: smaller EC50 value, a or b ? Indicate your choice by writing its label.
Ans. a
(a: 25 nM, b: 239 nM)

====

system.name: human E3 ligase component cereblon (CRBN) (Homo sapiens (Human), UniProt Q96SW2)
protocol.details: Cereblon (CRBN) target engagement, NanoBRET TE Intracellular E3 Ligase Assay in transfected HEK-293T cells
test.parameters: read-out: CRBN Binding EC50
readout.kind: EC50 (nM)

N#Cc1ccc(C2CN([C@@H]3CCCC[C@@H]3Oc3ccc4c(c3)CN(C3CCC(=O)NC3=O)C4=O)C2)cc1F (mixture of isomers) [Compound 122] :: 20
N#Cc1ccc(C2CN([C@H]3CCCC[C@@H]3Oc3ccc4c(c3)CN(C3CCC(=O)NC3=O)C4=O)C2)c(F)c1 (mixture of isomers) [Compound 116] :: 24
